target: HLA-A*02:01 (Homo sapiens, UniProt P04439, D140Y/D185E/D98H/E176V/E277Q/G131W/G231S/I119V/I121R/I166T/I218V/L300P/L318F/N151K/N90K/P208A/P217A/Q86G/Q94H/R138H/R169H/T345S); assay type: cell-based
One threshold, 5, splits the recorded EpiScan MFI values: lower ones are yes (1), equal or higher ones are no (0).

Example results:
TLATHGLAAV [SARS-CoV-2 HLA-A*02:01 peptide used for tetramer staining] :: yes (1)
YIDIGNYTV [SARS-CoV-2 HLA-A*02:01 peptide used for tetramer staining] :: yes (1)
VMVELVAEL [SARS-CoV-2 HLA-A*02:01 peptide used for tetramer staining] :: no (0)
VMAYITGGV [SARS-CoV-2 Orf1ab 597-605; used for tetramer staining] :: yes (1)
VLYQDVNCTEV [SARS-CoV-2 HLA-A*02:01 peptide used for tetramer staining] :: no (0)
AMDEFIERYKL [SARS-CoV-2 Orf1ab 6669-6679; used for tetramer staining] :: yes (1)
SLPGVFCGV [SARS-CoV-2 HLA-A*02:01 peptide used for tetramer staining] :: no (0)

Kindly consider the entry below.
Exam item: Please let me know if VMAYITGGVV [SARS-CoV-2 HLA-A*02:01 peptide used for tetramer staining] shows EpiScan MFI below 5.
Marked response: yes (1)
